Test: clinical
Conditions: male, human, in vivo
measurement_label: CL/F (mL/min/kg)
Report the figure in mL/min/kg without appending any unit label.

Write down CL/F measured for item C[C@@H]1CC[C@H]2[C@@H](C)C(=O)O[C@@H]3O[C@@]4(C)CC[C@@H]1[C@]32OO4
121

----------
Experiment: clinical
Details: male, human, in vivo
measurement_label: Vd/F (L/kg)
Report the figure in L/kg without appending any unit label.

Write down Vd/F measured for item C[C@@H]1CC[C@H]2[C@@H](C)C(=O)O[C@@H]3O[C@@]4(C)CC[C@@H]1[C@]32OO4
22.8

----------
Test: clinical
Details: male, human, in vivo
measurement_label: half-life (min)
Report the figure in min without appending any unit label.

Write down half-life measured for item C[C@@H]1CC[C@H]2[C@@H](C)C(=O)O[C@@H]3O[C@@]4(C)CC[C@@H]1[C@]32OO4 [artemisinin]
134
